Test: Cytotoxicity, XTT method, MT-2 cells
Assay type: cell-based, human
Details: human, read-out: CC50 (μM) ± SD, cytotoxicity in MT-2 cells
Bridge positions count the residues as written; N and C are the ends. Square brackets hold non-standard residues; d marks the D form. Peptide text beside a SMILES is read from it. R8 = C=CCCCCCC[C@@](C)(N)C(=O)O; S5 = C=CCCC[C@](C)(N)C(=O)O
Each entry below carries its reported CC50 at 4 days.

Some compounds with known CC50 at 4 days results, for comparison:
INSERT INTO results (compound, property_label, result) VALUES
  ('CC(C)C[C@@H]1NC(=O)[C@H]([C@@H](C)O)NC(=O)[C@H](CCC(=O)O)NC(=O)[C@H]([C@@H](C)O)NC(=O)[C@H](C)NC(=O)[C@H](Cc2c[nH]c3ccccc23)NC(=O)[C@](C)(NC(=O)[C@H](CCCCN)NC(=O)[C@H](Cc2c[nH]c3ccccc23)NC(=O)[C@H](C)NC(=O)[C@H](CCC(N)=O)NC(=O)[C@H](C)N)CCCCCCC=CCCC[C@@](C)(C(=O)N[C@H](C(=O)N[C@@H](C)C(=O)N[C@@H](CC(N)=O)C(N)=O)C(C)C)NC1=O [NYAD-222, AQAWKZWATETLXVAN] (H-AQAWK[R8]WATETL[S5]VAN-NH2; staple 6-13)', 'CC50 at 4 days', '> 130 µM'),
  ('CSCC[C@@H]1NC(=O)[C@H](Cc2c[nH]c3ccccc23)NC(=O)[C@](C)(NC(=O)[C@H](CCCCN)NC(=O)[C@@H](NC(=O)[C@H](C)NC(=O)[C@H](CCC(N)=O)NC(=O)[C@H](C)N)C(C)C)CCCCCCC=CCCC[C@@](C)(C(=O)N[C@H](C(=O)N[C@@H](C)C(N)=O)C(C)C)NC(=O)[C@H](CC(C)C)NC(=O)[C@H]([C@@H](C)O)NC(=O)[C@H](CCC(=O)O)NC(=O)[C@H]([C@@H](C)O)NC1=O [NYAD-221, AQAVKZWMTETLXVA] (H-AQAVK[R8]WMTETL[S5]VA-NH2; staple 6-13)', 'CC50 at 4 days', '> 140 µM');

Read the next record carefully.
[ask] Given CSCC[C@@H]1NC(=O)[C@H](Cc2c[nH]c3ccccc23)NC(=O)[C@@](C)(NC(=O)[C@H](CCCCN)NC(=O)[C@@H](NC(=O)[C@H](CCC(=O)O)NC(=O)[C@H](CCC(N)=O)NC(=O)[C@H](C)N)C(C)C)CCCC=CCCC[C@@](C)(C(=O)N[C@H](C(=O)N[C@@H](CC(C)C)C(=O)N[C@@H](CC(C)C)C(=O)N[C@H](C(=O)N[C@@H](C)C(N)=O)C(C)C)[C@@H](C)O)NC(=O)[C@H]([C@@H](C)O)NC1=O [NYAD-201, AQEVKXWMTXTLLVA] (H-AQEVK[S5]WMT[S5]TLLVA-NH2; staple 6-10) , state its recorded CC50 at 4 days.
[reply] > 115 µM
